tested on: Wolbachia pipientis; assay: Anti-Wolbachia Cell-Based Screen; type: functional; parameters: scale not given: in the data most compounds retested in dose-response had high values; conditions: 5 µM
Among all 48,000 compounds or so, about 13,000 (27%) showed an effect of 50% or more. Some of the results follow.

compound	valueUnit	Percent Effect
c1cc(C2CCCN2CC2CCCCC2)n[nH]1 (configuration not stated)	%	159.6
c1cc(C2CCCN2CC2CC2)n[nH]1 (configuration not stated)	%	189.2
Cc1nc(C2CCCN(C(=O)c3cnn(C(C)(C)C)c3)C2)no1 (configuration not stated)	%	1.32
CCn1cc(C(=O)N2CCCC(c3noc(C)n3)C2)cn1 (configuration not stated)	%	122
CC(C)(C)NC(=O)C1CSCN1S(=O)(=O)c1ccccc1F (configuration not stated)	%	-0.6778
CC(C)CN1CCCC1c1ccc(C(=O)Nc2cc[nH]n2)s1 (configuration not stated)	%	6.388
Cc1cnn(CCC(=O)N2CCCC(c3cc(C(N)=O)[nH]n3)C2)c1 (configuration not stated)	%	5.057
Cc1nc(C2CCCN(C(=O)c3cnn(C4CCCCC4)c3)C2)no1 (configuration not stated)	%	101.3
CCCC(C)N(C)Cc1nnc(-c2ccco2)o1 (configuration not stated)	%	-4.256
CC(C(=O)Nc1ccnn1C(C)C)N1CCN(Cc2ccccc2)CC1 (configuration not stated)	%	-23.16
Cc1nc(C2CCCN(C(=O)c3cc(C)sc3C)C2)no1 (configuration not stated)	%	-7.599
Cc1cnn(CCC(=O)N2CCCC(c3noc(C)n3)C2)c1 (configuration not stated)	%	105

====

Listing: Percent Effect of selected compounds
system: Wolbachia pipientis; test: Anti-Wolbachia Cell-Based Screen; assay type: functional; parameters: scale not given: in the data most compounds retested in dose-response had high values; details: 5 µM
Hit rate of the full screen: of about 48,000 compounds, about 13,000 (27%) showed an effect of 50% or more. Some of the results follow.

compound	valueUnit	Percent Effect
CCc1ncc2c(n1)CN(CC(=O)Nc1ccc(Cl)cn1)CC2	%	-11.22
CC1c2cc(F)ccc2CCN1CCCS(=O)(=O)C(C)C (stereo unspecified)	%	-15.92
CCc1nc(NS(=O)(=O)c2cc(C)ccc2Br)no1	%	-0.5408
COCCN1C2(CCN(C(=O)c3cccs3)C2)c2ccccc2S1(=O)=O (stereo unspecified)	%	112.6
Cc1cc(CC(C)NC(=O)Cc2cc(F)ccc2C)[nH]n1 (stereo unspecified)	%	-12.96
CC(C)n1ccnc1C1CCCN(c2ccncc2F)C1 (stereo unspecified)	%	20.23

====

Listing: Percent Effect of selected compounds
tested on: Wolbachia pipientis; experiment: Anti-Wolbachia Cell-Based Screen; type: functional; design: scale not given: in the data most compounds retested in dose-response had high values; conditions: 5 µM
About 13,000 (27%) of roughly 48,000 compounds showed an effect of 50% or more. This is one part of the list.
quantityName: Percent Effect (%)

compound	valueReported
O=C(C1CCC1)N1CCCC1c1nnc2n1CCCCC2 (centres undefined)	-4.579
CCSCc1nc(O)c2nnn(C3CCN(Cc4ccoc4)CC3)c2n1	124.7
COc1ccc(CC(=O)N2CCC(c3nnc4n3CCC4)CC2)cc1F	-6.133
c1nc2c(c(C3CCOC3)n1)CCN(Cc1ccoc1)CC2 (centres undefined)	7.2
Cc1nccn1-c1cc(CNC(=O)CCC2CCCO2)ccn1 (centres undefined)	10.65
c1ccc(-c2noc(CNC3CCc4ncnn4C3)n2)nc1 (centres undefined)	0.9775
CC(C)N(C)S(=O)(=O)N1CCN(Cc2ccco2)CC1	-10.02
O=S(=O)(Cc1ccccc1Cl)NCCCN1CCCC1	-15.99
CC(C)Oc1ncc(C(=O)N2CCC(NC(=O)C3CC3)CC2)cc1Cl	-2.3
CN1CCC(N(Cc2ccccc2)C(=O)c2ccn3ccnc3c2)CC1	0.1453
COc1ccccc1CN1C(=O)O[C@@H]2CN(Cc3cccc(C)n3)C[C@@H]21	8.298
CC(C)[C@@H]1CN(Cc2cnc3c(S(C)(=O)=O)cnn3c2)C[C@H]1N(C)C	-1.352
Cc1nc2n(n1)CC(NCc1nc(-c3cccnc3)no1)CC2 (centres undefined)	-5.692
O=C(CCn1cccn1)N1CCN(CC(F)F)CC1	6.604
CN1CCC(N2C[C@H](O)C[C@H]2c2nc(Cc3ccccc3)no2)CC1	-1.075
O=C(O)c1cc2c(nc1-c1ccncc1)CCN(Cc1ccoc1)CC2	-1.034
CCSCc1nc(O)c2nnn(C3CCN(Cc4ccco4)CC3)c2n1	93.96
Fc1ccc(-c2cnc(CNC3CCc4ncnn4C3)o2)cc1 (centres undefined)	7.148
CN1CCC(N2CCC(CN(Cc3ccncc3)C3CCC3)CC2)CC1	7.68
CCn1ncnc1C(C)NC(=O)C1CCN(Cc2ccco2)CC1 (centres undefined)	-16.37
O=C1CC(c2cccs2)c2snc(C(=O)O)c2N1 (centres undefined)	12.4
CN1CCC(N(Cc2ccccc2)C(=O)c2nccn3ccnc23)CC1	3.341
CN1CC[C@H](N(C)Cc2ccccc2)C[C@H](O)C1	67.42
CN1CC[C@H](N(Cc2ccccc2)Cc2ccccc2)C[C@H](O)C1	97.14

====

system: Wolbachia pipientis; experiment: Anti-Wolbachia Cell-Based Screen; format: functional; set-up: scale not given: in the data most compounds retested in dose-response had high values; details: 5 µM
Out of some 48,000 compounds screened, about 13,000 (27%) showed an effect of 50% or more. This is one part of the list.

compound	Percent Effect (%)
CN1C(=O)C(C)(C)COc2cc(NS(=O)(=O)Cc3ccccc3)ccc21	11.42
CN1C(=O)C(C)(C)COc2ccc(NS(=O)(=O)Cc3ccccc3)cc21	99.35
Cn1c(=O)n(C)c2cc(NS(=O)(=O)Cc3ccccc3)ccc21	78.16
CSc1ncc(CNC(C)c2cnn(-c3ccc(F)cc3F)c2C)cn1 (stereo unspecified)	-22.9
Cc1nc(N2CCCC2)nc(C)c1NS(=O)(=O)c1ccccc1F	-5.726
Cn1cccc1C(O)CNS(=O)(=O)Cc1ccccc1 (stereo unspecified)	-5.113
O=C1CO[C@H](c2ccc(NS(=O)(=O)Cc3ccccc3)cc2)[C@@H](CO)N1	-3.508
Cn1ccc(CS(=O)(=O)Cc2ccccc2)cc1=O	-1.625
Cn1cccc1CN1CCC2(CCCN(C(=O)c3cccnc3)C2)CC1.O=C(O)C(F)(F)F.O=C(O)C(F)(F)F	3.692
CC(C)CS(=O)(=O)Nc1ccc2c(c1)OCC(C)(C)C(=O)N2C	141.6
CCCN(CC1CC1)C(=O)Cn1ccccc1=O	-7.373

====

Listing: Percent Effect of selected molecules
tested on: Wolbachia pipientis; assay: Anti-Wolbachia Cell-Based Screen; assay type: functional; design: scale not given: in the data most compounds retested in dose-response had high values; settings: 5 µM
Among all 48,000 compounds or so, about 13,000 (27%) showed an effect of 50% or more. The list shows a part of the results.

molecule	valueUnit	Percent Effect
CN(C)c1cnn(CC(=O)N2CCN(c3ccccc3)CC2)c(=O)c1	%	3.087
CC/C(C)=C/CCN1CCN(C)C2(CCNC(=O)CC2)C1 (stereo not drawn)	%	-7.249
CN(C)c1cnn(Cc2nc3ccccc3n2C)c(=O)c1	%	116.1
Cc1ccccc1[C@@H]1CN(Cc2c(C)noc2C)C[C@H]1C(=O)O	%	-12.73
Cc1ccccc1C(C(=O)N1CCN(C(=O)c2ccc[nH]2)CC1)N(C)C (stereo not drawn)	%	2.077
CCCOCCn1ncc(N2CCCC2)cc1=O	%	0.2704
CCOC1CCN(C(=O)c2ccc(-n3ncc(C#N)c3N)cc2)CC1	%	-10.17
COCCO[C@H]1CCN(c2ccc(C)nn2)[C@H]1Cc1cccnc1.O=C(O)C(F)(F)F.O=C(O)C(F)(F)F	%	97.63
Cc1ccc(N2CC[C@H](OCC3CC3)[C@@H]2Cc2cccnc2)nn1.O=C(O)C(F)(F)F	%	91.78
O=C(Nc1ccnc(OC2CCOC2)c1)c1ccc(F)cc1Cl (stereo not drawn)	%	-10.63
CCN1CCC(c2nnc(CN3CCCC3)n2C2CC2)CC1	%	-1.245
O=C(C1CC1)N1CCN(c2ccc(-n3cncn3)nn2)CC1	%	7.785
O=C(CNc1cc(-c2ccccc2)nc2ccnn12)NC1CC1	%	-3.438
CSCC(=O)NC(Cc1ccc(C)cc1)c1ccccn1 (stereo not drawn)	%	-0.4247
CCc1ccc(CCNc2ncnc3c2CCN(C(=O)C2CC2)C3)cc1	%	-23.9
CC(C)(C)NC(=O)C[C@@H]1CCNC[C@@H]1Cc1cc(C(C)(C)C)on1	%	-4.858
CN(CC(=O)NC(C)(C)C)Cc1nc(-c2ccccc2)c[nH]1	%	-12.75
CN(CCc1cnn(C)c1)C(=O)C(c1ccccc1F)N(C)C (stereo not drawn)	%	-8.573
CN(CCc1ccncc1)C(=O)c1sccc1OC(F)F	%	-13.92
CNC(=O)[C@@H](C1CC1)N1CCC[C@H]1C(=O)NCC(C)C.Cl	%	5.18
CCc1nnc(CNc2ccc(CC(=O)N3CCSCC3)cc2)o1	%	7.337
CCOC(=O)C1CCN(C(=O)CN2CCCC2c2ccccc2C)CC1 (stereo not drawn)	%	-25.1
Cn1c(Cn2ncc(N3CCCC3)cc2=O)nc2ccccc21	%	114.5
